experiment: Part 1 SAD plasma pharmacokinetics of KAR5585 and KAR5417 after a single oral dose of KAR5585 (fasting; fed food effect); conditions: Cohort 3A (Fasting), 400 mg KAR5585 single oral dose
QUANTITY: AUC0-inf Geometric Mean

# SMILES ENTRY, QUANTITY, RESULT
data = [
    ("CCOC(=O)[C@@H]1CC2(CCN(c3cc(O[C@H](c4ccc(Cl)cc4-c4ccccc4)C(F)(F)F)nc(N)n3)CC2)CN1", "AUC0-inf Geometric Mean", "288 ng·h/mL"),
    ("Nc1nc(O[C@H](c2ccc(Cl)cc2-c2ccccc2)C(F)(F)F)cc(N2CCC3(CC2)CN[C@H](C(=O)O)C3)n1", "AUC0-inf Geometric Mean", "3280 ng·h/mL"),
]

* * *

AUC0-tau Geometric Mean for assorted compounds
assay: Part 1 SAD plasma pharmacokinetics of KAR5585 and KAR5417 after a single oral dose of KAR5585 (fasting; fed food effect); settings: Cohort 3A (Fasting), 400 mg KAR5585 single oral dose
QUANTITY: AUC0-tau Geometric Mean (ng·h/mL)

# SMILES ENTRY, QUANTITATIVE RESULT
records = [
    ("Nc1nc(O[C@H](c2ccc(Cl)cc2-c2ccccc2)C(F)(F)F)cc(N2CCC3(CC2)CN[C@H](C(=O)O)C3)n1", 3120),
    ("CCOC(=O)[C@@H]1CC2(CCN(c3cc(O[C@H](c4ccc(Cl)cc4-c4ccccc4)C(F)(F)F)nc(N)n3)CC2)CN1", 176),
]

* * *

AUC0-tau Geometric Mean for assorted molecules
assay: Part 1 SAD plasma pharmacokinetics of KAR5585 and KAR5417 after a single oral dose of KAR5585 (fasting; fed food effect); conditions: Cohort 3B (Fed), 400 mg KAR5585 single oral dose

# SMILES ENTRY, READOUT UNITS, AUC0-tau Geometric Mean
rows = [
    ("Nc1nc(O[C@H](c2ccc(Cl)cc2-c2ccccc2)C(F)(F)F)cc(N2CCC3(CC2)CN[C@H](C(=O)O)C3)n1", "ng·h/mL", 6360),
    ("CCOC(=O)[C@@H]1CC2(CCN(c3cc(O[C@H](c4ccc(Cl)cc4-c4ccccc4)C(F)(F)F)nc(N)n3)CC2)CN1", "ng·h/mL", 854),
]

* * *

AUC0-inf Geometric Mean for assorted compounds
assay: Part 1 SAD plasma pharmacokinetics of KAR5585 and KAR5417 after a single oral dose of KAR5585 (fasting; fed food effect); conditions: Cohort 3B (Fed), 400 mg KAR5585 single oral dose

# SMILES ENTRY, AUC0-inf Geometric Mean (ng·h/mL)
measured = [
    ("Nc1nc(O[C@H](c2ccc(Cl)cc2-c2ccccc2)C(F)(F)F)cc(N2CCC3(CC2)CN[C@H](C(=O)O)C3)n1", 6630),
    ("CCOC(=O)[C@@H]1CC2(CCN(c3cc(O[C@H](c4ccc(Cl)cc4-c4ccccc4)C(F)(F)F)nc(N)n3)CC2)CN1", 903),
]

* * *

test: Part 1 SAD plasma pharmacokinetics of KAR5585 and KAR5417 after a single oral dose of KAR5585 (fasting; fed food effect); details: Cohort 3A (Fasting), 400 mg KAR5585 single oral dose
Cmax Geometric Mean for assorted molecules
QUANTITY: Cmax Geometric Mean

# SMILES ENTRY, RESULT
rows = [
    ("Nc1nc(O[C@H](c2ccc(Cl)cc2-c2ccccc2)C(F)(F)F)cc(N2CCC3(CC2)CN[C@H](C(=O)O)C3)n1", "444 ng/mL"),
    ("CCOC(=O)[C@@H]1CC2(CCN(c3cc(O[C@H](c4ccc(Cl)cc4-c4ccccc4)C(F)(F)F)nc(N)n3)CC2)CN1", "42 ng/mL"),
]

* * *

experiment: clinical; details: human, plasma, oral, 100 mg

# SMILES ENTRY, concentration at 24 h / ng/mL
rows = [
    ("Nc1nc(O[C@H](c2ccc(Cl)cc2-c2ccccc2)C(F)(F)F)cc(N2CCC3(CC2)CN[C@H](C(=O)O)C3)n1", 19.7),
]

Origin of the recorded values: patent US20200237759A1
